test: qHTS assay to identify small molecule agonists of the TGF-beta/Smad signaling pathway - cell viability counter screen (AID 1346829); further: top concentration of the series differs between compounds; nearly all actives have a fitted effect of over 45% in size
cond: SBE-bla HEK293T viability, CellTiter-Glo luminescence, 5 h; series mostly up to 76.8 µM
Results filed as inconclusive are left out. Activity calls are given as the source filed them. The call rests on the fitted dose curve; in most records, active means well fitted cell-killing curve with a large enough effect in the repeat runs; inconclusive means weak or mixed curves, or effect the other way; inactive means flat fitted curve, though single readings scatter.
readout: activity change, negative = cytotoxicity

- compound: "OCCN1CCOCC1"
  readout: "activity change, negative = cytotoxicity"
  observed.value: "inactive"
- compound: "CC(C)C[C@@H]1[C@H](c2ccccc2)OC(=O)N1CCCN1CCCCCC1"
  readout: "activity change, negative = cytotoxicity"
  observed.value: "inactive"
- compound: "C=CCCCCCCCC"
  readout: "activity change, negative = cytotoxicity"
  observed.value: "inactive"
- compound: "CCC(C)C(C)=O (centres undefined)"
  readout: "activity change, negative = cytotoxicity"
  observed.value: "inactive"
- compound: "Cc1c(C(=O)c2c[nH]n(C)c2=O)ccc(S(C)(=O)=O)c1C1=NOCC1"
  readout: "activity change, negative = cytotoxicity"
  observed.value: "inactive"
- compound: "C[C@]12CCC(=O)C=C1CC[C@H]1[C@@H]3CC[C@](O)(C(=O)CO)[C@@]3(C)C[C@H](O)[C@@]12F"
  readout: "activity change, negative = cytotoxicity"
  observed.value: "inactive"

// query State its activity change, negative = cytotoxicity: O=C(NCN1CCOCC1)c1cnccn1
// result inactive

// query State its activity change, negative = cytotoxicity: CCOc1ccccc1OCC1CNCCO1 (centres undefined)
// result inactive

// query State its activity change, negative = cytotoxicity: Nc1nc(-c2ccccc2)c(Br)c(=O)[nH]1
// result inactive

// query State its activity change, negative = cytotoxicity: O/N=C/C=N/O
// result inactive
